test system: S. aureus DSM 20231; test: Bliss interaction score (quartile over a dose matrix) (fitness difference); higher = more antagonism (negative = synergy);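 also: first quartile when negative (synergy) and third quartile when positive (antagonism)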
parameter-measured: Bliss interaction score
Format: numeric value only, no unit, no commentary.

// worked examples, Bliss interaction score included
O=c1[nH]cc(F)c(=O)[nH]1 [Fluorouracil] + CN(C)C(=O)C(CCN1CCC(O)(c2ccc(Cl)cc2)CC1)(c1ccccc1)c1ccccc1 [Loperamide] | 0.195
O=c1[nH]cc(F)c(=O)[nH]1 [Fluorouracil] + O=C1CN(/N=C/c2ccc([N+](=O)[O-])o2)C(=O)N1 [Nitrofurantoin] | -0.206

Summary for this molecule, CC(=O)NC[C@H]1CN(c2ccc(N3CCOCC3)c(F)c2)C(=O)O1 [Linezolid] + Cn1nnc(-c2ccc(-c3ccc(N4C[C@H](CO)OC4=O)cc3F)cn2)n1 [Tedizolid] : Bliss interaction score is -0.185

Summary for this molecule, CO[C@@]12[C@H](COC(N)=O)C3=C(C(=O)C(C)=C(N)C3=O)N1C[C@@H]1N[C@@H]12 [MitomycinC] + COc1ccc(C[C@H](N)C(=O)N[C@H]2[C@@H](O)[C@H](n3cnc4c(N(C)C)ncnc43)O[C@@H]2CO)cc1 [Puromycin] : Bliss interaction score is 0.0528

Summary for this molecule, O=c1[nH]cc(F)c(=O)[nH]1 [Fluorouracil] + CN[C@@H]1[C@H](O[C@H]2[C@H](O[C@H]3[C@H](O)[C@@H](O)[C@H](N=C(N)N)[C@@H](O)[C@@H]3N=C(N)N)O[C@@H](C)[C@]2(O)C=O)O[C@@H](CO)[C@H](O)[C@H]1O [Streptomycin] : Bliss interaction score is -0.184

Summary for this molecule, CO[C@@]12[C@H](COC(N)=O)C3=C(C(=O)C(C)=C(N)C3=O)N1C[C@@H]1N[C@@H]12 [MitomycinC] + Cc1onc(-c2ccccc2)c1C(=O)N[C@@H]1C(=O)N2[C@@H]1SC(C)(C)[C@@H]2C(=O)O [Oxacillin] : Bliss interaction score is 0.0499

Summary for this molecule, CO[C@@H]1[C@@H](OC(N)=O)[C@@H](O)[C@H](Oc2ccc3c(O)c(NC(=O)c4ccc(O)c(CC=C(C)C)c4)c(=O)oc3c2C)OC1(C)C [Novobiocin] + Cc1onc(-c2ccccc2)c1C(=O)N[C@@H]1C(=O)N2[C@@H]1SC(C)(C)[C@@H]2C(=O)O [Oxacillin] : Bliss interaction score is 0.0609

Recorded values, source the supplement of paper PMC10627819.
